Biological target: serotoninergic 5-HT1A receptors (Rattus norvegicus, UniProt P19327)
Sequence (P19327 1-422): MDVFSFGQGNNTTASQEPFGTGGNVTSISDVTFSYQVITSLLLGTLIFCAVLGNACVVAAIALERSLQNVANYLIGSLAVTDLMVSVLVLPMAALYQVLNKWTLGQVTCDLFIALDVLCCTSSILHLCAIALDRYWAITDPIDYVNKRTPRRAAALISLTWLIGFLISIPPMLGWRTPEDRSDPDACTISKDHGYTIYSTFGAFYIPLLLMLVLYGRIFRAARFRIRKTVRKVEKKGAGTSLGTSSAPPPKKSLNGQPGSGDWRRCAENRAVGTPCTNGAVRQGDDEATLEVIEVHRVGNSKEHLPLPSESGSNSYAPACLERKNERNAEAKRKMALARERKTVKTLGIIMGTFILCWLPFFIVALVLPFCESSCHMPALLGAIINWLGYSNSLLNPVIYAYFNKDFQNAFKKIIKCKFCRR
property: IC50 (nM)

1) Cc1cccc(C(=O)N2CCC(CNCC3CCc4ccccc4O3)CC2)c1 (centres unmarked) [Compound 7]	3.8

P. Cc1cccc(C(=O)N2CCC(CNCC3CCc4ccccc4C3)CC2)c1 (centres unmarked) [Compound 5]
Q. O=C(c1ccccc1)N1CCC(CNCC2COc3ccccc3O2)CC1 (centres unmarked) [Compound 9]
R. Cc1ccc(CN2CCC(CNCC3COc4ccccc4O3)CC2)cc1 (centres unmarked) [Compound 17]
S. Cc1cccc(C(=O)N2CCC(CNCC3Cc4ccccc4O3)CC2)c1 (centres unmarked) [Compound 3]
Incoming: // ranking: key=IC50, reverse=True Write the labels, ordered according to the request.
Outgoing: P, S, R, Q
